# Tgt: T1, HCV NS3 (KLV peptide) peptide on HLA-A*02:01 (human)
# T1 peptide: KLVALGINAV
# Method: data from [46]; method not given; soluble, other
Assay endpoint: Kd (µM)

* 1406 (TCR) alpha TRAV38-2/DV8*01 CDR3: AYGEDDKII beta TRBV25-1*01 CDR3: ASRRGPYEQY | 16
